experiment: soluble fraction after stress (log2 fold change); higher = more stays soluble; pooled small domains, quantitative proteomics; settings: stress: pH 4
propertyMeasured: soluble fraction (log2)
Respond with the number and no other words.

# input // lookup soluble fraction (log2) for `HMDAMGAVGIARAFISAGERGGDISDGLEHMHGKLLRLSSLMYTRSGKKMAARRHELLSSFVQALEEEIK`
# output -0.0591

# input Please answer likewise for `HMPIDIEPVLQWIRDNSIDGIGPARSMYHSAAAAAGLPSYSSLQLRKWTWPLLLDAAGVQRR`
# output -0.265

# input Please answer likewise for `HMQVSDEGAIQLLVQKAIEENPQAIEAFRGGKTSALGPVVGWVMKQSKGAANPTMVKTLLEKAI`
# output 0.378

# input Please answer likewise for `HMANLLNLREIPVANIRPELTMFLIPGENITQAFQTIRDQVVFTNKRLIVANVQGLTGKKVSYTSYPY`
# output -0.251

* * *

assay: soluble fraction after stress (log2 fold change); higher = more stays soluble; pooled small domains, quantitative proteomics; details: stress: pH 4
propertyMeasured: soluble fraction (log2)
Respond with the number and no other words.

# input // lookup soluble fraction (log2) for `HMETLYGQIVNDIMEKIESNAWPVGYVIPTESDFQKQYGVSRATVRNAILKLAHLGYLVRKKGSGTYVTRP`
# output -0.287

# input Please answer likewise for `HMPKYLNIYHELAQRIQEGALPAETKLPSETELMQEFEASRGTVRKAIDALQEKGFVRKHQGKGVFVLSQ`
# output 0.152

# input Please answer likewise for `HMQPFTELTPREREILGHLAEGQSNKVIARHLDISDGTVKLHVKAILRKLGVHSRVEAAVMAVEHGIR`
# output 0.4

# input Please answer likewise for `HMEAEMLYQVKVKITNLVIRSGAGAIYPIVKRYASGVLPIYEEKNGYGKIAVGQWISLSPEFVERVD`
# output -0.0106

* * *

assay: soluble fraction after stress (log2 fold change); higher = more stays soluble; pooled small domains, quantitative proteomics; conditions: stress: pH 4
Binary call on soluble fraction (log2): Satisfied from -0.1 upward, Not satisfied beneath that.

# input Please tell me: is the sequence `HMAPMYGEFENVRLTDAQLDKLNARFPPEQVQREIEALSGYMRSKGKRYADHYATLLNWLRRDFPP` at or over -0.1 in terms of soluble fraction (log2)?
# output Not satisfied

# input Please answer likewise for `HMGWEDLVGKTAVVKVALAPVGMVFFRGEFWSAISETGRIEPGEEVTISRIDGLKLYVTKKRIM`
# output Satisfied

# input Please answer likewise for `HMVDETDVPTFTDMTLEEAQNEAKQRNLKLEITESPSDKEKDTILEQDPEPGKTVASGSTVKLTVSNGEE`
# output Satisfied

# input Please answer likewise for `HMDSPRITMDQLRIGLYVYLDLTWFQHPFAFSHFKINSEDQIKTILGLGLKSVRYDPALSDPV`
# output Not satisfied

# input Please answer likewise for `HMSTLKSALDEIPGIGAARKRALLNHFGSTRVISSVGVKDLEQVEGVSKKIALLIYGYFHDK`
# output Satisfied

# input Please answer likewise for `HMQETIDVAALRVGMFVHLDLGWLAHPFPLSSFRISSEDQISTIRALGLKRVRWSSQHSELG`
# output Not satisfied

# input Please answer likewise for `HMPEEGPSEDGNSFTAKFKLGSDVQGAMEQADAAAKAGLQDAGKGTGQITSRAQVGGYIYSTATA`
# output Satisfied

# input Please answer likewise for `HMTKINAPMPGNILDVKVNVGDHVEANQLVLMLEAMKMENEIFTPVAGTVVGVHVKKGDSVNSDDLLISI`
# output Not satisfied

# input Please answer likewise for `HMDFTISDADFHRLVQFIQQNYGVALSKKRQLISSRLSHSLRELGYKDFRTFLEHLFSTRDPADLELVLNK`
# output Not satisfied

# input Please answer likewise for `HMNISLGALVTITDQKGRSHTVTLESGKQFFTNHGSINHDEIIKAGEGGVVASSSGMLYTIFTP`
# output Not satisfied

# input Please answer likewise for `HMNGSVLVTGGSVWIRAGASKETDGLGIVHKGDVLKRSGSDASGWRGVVYEGQNAFISAKYSSI`
# output Satisfied

# input Please answer likewise for `HMSSAYLTVRGIDIDVIYKDIKNLHIAVYPPFGRVRVAAPSHLDDDQVRLAVIQRLTWIKRQRERLRST`
# output Not satisfied

# input Please answer likewise for `HMTETTTVPKLKGLTKDEAEDAAKSSKIKLEFIDEISKTVEAGVIIKQEKDEGETVNAGDTVKVYVSIGT`
# output Satisfied

# input Please answer likewise for `HMIKRITDEQHPVDVDRLLVVTFTNAAASEMRERIGDAIEAALEKDPYNQHLQRQLTLVHNAQITTIDS`
# output Satisfied

# input Please answer likewise for `HMPNNNDIVLDRVSFGYHEKEVLHGIDMTIREGTVNALVGPSGSGKSTIAKLIAGLWDVDGGSISF`
# output Satisfied

# input Please answer likewise for `HMITLKKRRQEAILEIIEKYDLSTQDELLQKLKDSGFDATQATVSRDIKELRLVKTMGANGQYKYAVT`
# output Not satisfied

# input Please answer likewise for `HMIKYTIEELGELTGFTRRTIRYYVQEGLIDPPAGRGRGGFYYDSHVQQLLRIKSFQEKGIGITAMVSLM`
# output Not satisfied

* * *

assay: soluble fraction after stress (log2 fold change); higher = more stays soluble; pooled small domains, quantitative proteomics; conditions: stress: pH 4
Each entry falls in a class defined on soluble fraction (log2); the bands are low interval (below -1), middle interval (-1 to below -0.05), high interval (-0.05 or more)

# input # bin lookup: classify `HMIYYTEEELVKRYIDFSNYLGKKEGASDVDFKKYAVEFGIPSRDHYNRKFITLFNLKIKAGYKPIRH` by its soluble fraction (log2)
# output low interval

# input Please answer likewise for `HMAQLPADMSKVKSADISEAQLQEFIQKATSSGYNMNQIEMEFAKRGMSENEVSLLRPRLRRLMAS`
# output high interval

# input Please answer likewise for `HMQISNEEELEKIIENVIESNPEKVKAYQSGKSGLIGFFMGQVMKESGGQANPNLVNQILKGKL`
# output high interval

# input Please answer likewise for `HMSKKMTNEEILNFLKKVLIKHGKISGFIIDEDDNGPSSSVVASRFGGLLNAYKLINYTPER`
# output high interval

# input Please answer likewise for `HMIAALEGKQAMVLDQVSLHHGQVKLGGEVWTARPLNDQDVYEPGDRVTVMRIDGATAVVWRN`
# output middle interval

# input Please answer likewise for `HMASLSRRELEVLELLALRLTVKEVAERLVISELTAKRHTSNIYQKLGVNRRRDALAAAQARGLLGAR`
# output low interval

# input Please answer likewise for `HMGRELDLNQRVYDFIHDIADEVRTDEGTFSANQMMERFLFPGDLQSVPIGRLSGGERRRLYLLSVLMVKI`
# output low interval

# input Please answer likewise for `HMFISVDGLIHMGRTHLVILGGVEFARGDMIPETGEVVKSIGADSVVLELPDTGMRRTLNFV`
# output low interval

# input Please answer likewise for `HMESIEGMYKISLLRKQGNAYVIFEDENKEAVEHIFPEKPTALELGTKVIEMFEYKERYDGLI`
# output middle interval

# input Please answer likewise for `HMAGPGAEVVDRLIAVLTGERPATAADQVLLSILKGLGIGGVVLPSERTGLGWSGLYQRVKEITDMN`
# output low interval

# input Please answer likewise for `HMEIPTEEILKQKLYYSISEVASWFKVNTSLLRYWENEFDILQPRKTRKGDRLFRVEDIKNLQLIYLL`
# output middle interval

# input Please answer likewise for `HMNIVINVDTPTFEQMKATYQAPGTLPAGASFHAKLKGVTVTGYTKSHKVMFQGALANQEAARWQ`
# output high interval

# input Please answer likewise for `HMFTIGENIRDLRLERAITQEQLAEQLNVSAPAVSKWERGEAYPDITLVPKLAEILGVSTDKLFGVD`
# output middle interval

# input Please answer likewise for `HMREWPLWEIFIRGQHGLNHRHVGSLHAPDAAMAIGNARDVYTRRNEGVSIWAVRSADVVASVPSE`
# output low interval

# input Please answer likewise for `HMAESSPYTVRPGDTLWKILAQTQNARYNDFPYLYRKFRELNPNITDLNHIVSGQKIIVPHIPG`
# output high interval

# input Please answer likewise for `HMQTFNADDIEPIIKEILQENPKAISDFLTGNENVVKFLLGQVMKNTKGKANPKVIEELLINQLRELNN`
# output middle interval

# input Please answer likewise for `HMDYTPIEVKDLPQAIQDALTKNFSEYTVKSAAYQEDEDGVKIYQVTVVDEEGTEANIFFTEKGE`
# output high interval

* * *

Provide the reported soluble fraction (log2) of each item.
test: soluble fraction after stress (log2 fold change); higher = more stays soluble; pooled small domains, quantitative proteomics; settings: stress: pH 4
Respond with the number and no other words.

# input // lookup soluble fraction (log2) for `HMISFTDLEHIEKMIENVLYTKTPLNLPPTDAKIRKIEHQIARRYGLNSESFGDEPRRFVVVYPNEERE`
# output 0.0997

# input Please answer likewise for `HMNNQMTFSKFLNEVDAGRVVEVEIQGNNIKGVLADGNRFNTFSPNYPNLVEKLSDKGVSITAAPK`
# output 0.205

# input Please answer likewise for `HMKPGTIVTGVVVDIKSDVVVVNAGLKSEGIVPIEQFRNDRGELEVAIGDEVKVALDSLENGFGETVLSRE`
# output -1.21

# input Please answer likewise for `HMATLAVPNLMRLSQGEAMALIRLSGLSIGNVSIDSSMGSPRVIRQEPQASGGMLVLTQGDQVHLWLEGP`
# output -2.08

# input Please answer likewise for `HMDDAIAEKTGGAVSSVNQRQAILDHIREAYGIELESLRSTDIERYLDDPEIPEPVKDILRDRLRGAK`
# output 0.0292

# input Please answer likewise for `HMGVSLKEIQENLSLIDDAAQKLASGQGTVDDAVGMGNAGKDIYDNIEGYVSSPKEFINGVLSSV`
# output -0.823

# input Please answer likewise for `HMSLTPSQDANRSAILDAARDLFARYGFKKTTMEDIAMALRKGKSSLYYYFKNKEDIFQAVIDS`
# output -0.0869

# input Please answer likewise for `HMLVATFGPTTGWEGREIIWDVDRFILVGHGAVPAAGVLDYDRRGQLIWAQPELRAWVVEVDRWETG`
# output -1.61

# input Please answer likewise for `HMKTGTTGLIGEIGVVKKALTPEGKVFVHGELWRAVSKTASPEGTLVQVIKINNLVLEVEKV`
# output 0.0324

# input Please answer likewise for `HMQSRYALLAGMLRARITEGDWVPGSAIPAETVLAKEHGVALGTMRQAIALLVSQGLLERQHGRGTFVRS`
# output -0.0211

# input Please answer likewise for `HMQDLVAVPALTGLTENDAINKAKANNLIAVVSEYKTENSVEPGKVLEQDPESSTEVKKGTIIKLVVS`
# output 0.16

# input Please answer likewise for `HMDNEIEQIVEDLNLTLSSLKYTKNQIESILPLIIKEIDDFKKKEKNISFENLLKLAMNHLDND`
# output -1.16

# input Please answer likewise for `HMYLYADIYKKLEEKIKNMEVGEKLPSERAMVQEYGVSRNVLREALVLLSERGLIEIRPGKGSYVTNQQ`
# output -0.177

# input Please answer likewise for `HMSDEVNTDKAFRAIDSTLNRNVKGIAPRDHTLLRNTMITYFKSNDYIDYDTMIQSTLENYKPTELEQDKM`
# output 0.135

# input Please answer likewise for `HMKDLQHLVGEKGTTVTPLRPSGIALIKGSRYDVVSEGSFIQQGVAVEVIKVEGRRVVVSPLQED`
# output -0.0748

# input Please answer likewise for `HMNEPITIALREAEEAANKILNEGVHSVELSPQNGYVRRLQHELIARYGLTSASRGSDPSRRVSVGAN`
# output -0.273

# input Please answer likewise for `HMTVEVFQSLVQTFREMSPRKAASILEELKRDLAVEILLHMPEDGVAAILARMDPARAARLTEQLALEKD`
# output -0.867

# input Please answer likewise for `HMGNNSIDIKDVIYNLVEISQLQAFDIVKHFKTWENLVNKPDELDTVIDGDSDIVDRIKYKIKSLS`
# output -0.568

# input Please answer likewise for `HMGIAEGSSVFVRVLAAEDGGRYTVSFAGRRFSVLSRQALGIGSAFRADVKVEKGQVLLVPR`
# output -0.348

# input Please answer likewise for `HMTKDYVVIYEGLAQTEAVEILGKLQEMGVSAKVDHNDSILVLKDEEDQIRMALATEGYPKS`
# output -0.803

# input Please answer likewise for `HMGKRKDFTYTGNYFSEYKNQTFPSLSSFLKLVGKYENYGTIKRRVRFGWDIDEAILRENIN`
# output -0.231

# input Please answer likewise for `HMESIAEIDRMNAKIFMDEFQDSLSIMQKTTNPETFFSRYDLAMERLDNMVELQQKGIKFTSDLSSLKAQ`
# output -0.564

# input Please answer likewise for `HMSSDEAEYKLLLGQEGVAKSPLRPSGVVDFSGRRLDVQTLGDFIESGETVVVKQVNGHRVLVERK`
# output 0.0409

# input Please answer likewise for `HMGFYDLFINLADKVGSLADVTQILAEARINLVNVHILEIREEIDGIAQLTFSSEKDRQKALELLKTKYK`
# output -1.52

# input Please answer likewise for `HMRSRHYRFSTPFLDRLIAEIDWNSDNALSIFNQKLVHFDFLKYFSAIQPGSIVEIENLNFIWTGKRLEAH`
# output -0.71

# input Please answer likewise for `HMTPIELIEKTIELIENERKVQKLQQKELALKADIPFPTYKDFIYKKRASLENILKLFIALRLF`
# output -0.88

# input Please answer likewise for `HMDRSKREKEQQELMLKVQQIFDDNQQRFGAEKIRTVLAQNGVRVSVKRVSAIMQELNLRSIR`
# output 0.169

# input Please answer likewise for `HMTANPHKPEPLQIDTSDITPGVTVIHKAFGNGTVVSVDNNRILIDFDGIEKKFPFPGAFLYGFLQK`
# output -1.17

# input Please answer likewise for `HMDIYLTAFKTTSNQVTLNGIARSDLIISEFMRDIRDAKLFGEPVLQVIQNKNLNNVQARVFELVVPL`
# output -0.399

# input Please answer likewise for `HMITASNYFIEVERIGIETLPETLKKGHDLVVKSTSNGTNWANYQTSEGIKKVIDLYFQKLNEYANTV`
# output -1.57

# input Please answer likewise for `HMVDTEVFSRLLRKVLAGDVTSAIRILEELIVGGRELSQFVGDFTWYMRNLLLVKTSDNPEEA`
# output -0.116

# input Please answer likewise for `HMLEAKQIQDNWESLIKLIEDNFTGERKENLLKMYTHFQDRMMFAPASSKEHFHNAFPGGYVEHVL`
# output -0.942

# input Please answer likewise for `HMTEKEEERTEDLNYYRLNLISMLKSSYPEYLDDEEFISNRSQEAAEAFEDAVRSGSNYLDASAESNRTLY`
# output -0.717

FYI, the data here is from the domain aggregation screens of Martell et al. (2025).
